assay.procedure: soluble fraction after stress (log2 fold change); higher = more stays soluble; pooled small domains, quantitative proteomics;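 note: 20 min heating vs room temperature control held 20 min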
experimental.setup: stress: 75 degC
Parameter soluble fraction (log2): see the listing below.
measure.name: soluble fraction (log2)

>  <sequence.entry>
HMEVPVQYIKFKIPENHFWAKKKVADIILPPETLLVLLQRGSDKMIPDGETVLLPEDTLVLIAKAPG

>  <measure.name>
soluble fraction (log2)

>  <numeric.readout>
-0.479

$$$$
>  <sequence.entry>
HMEPTIGTATVTSGSRLNMRSAKSTSASVVTRIPSGATVGVISYASDWSKVTYNGYTGYVSSPYISMNG

>  <measure.name>
soluble fraction (log2)

>  <numeric.readout>
-1.19

$$$$
>  <sequence.entry>
HMYNSYALTARELELVNYVLKGNSRREMAEDSGLKENTVASYMKRLYRKIKVHSRKELKELFM

>  <measure.name>
soluble fraction (log2)

>  <numeric.readout>
-0.151

$$$$
>  <sequence.entry>
HMQPDYRVLYSNFSDKDGGAIVAALEKMNVPYKFSEGGSAILVPAGQVHQARLKLAADGLPK

>  <measure.name>
soluble fraction (log2)

>  <numeric.readout>
0.0648

$$$$
>  <sequence.entry>
HMETNFTGTRIATARKAKNMSQAQLAQQLFISPQAVGKWERGESIPDIVTVVKLADVLGVDLNYFSE

>  <measure.name>
soluble fraction (log2)

>  <numeric.readout>
-0.572

$$$$
>  <sequence.entry>
HMEMTDKEEELMRIFWNHGPMFVREIVELYPEPRPHFNTLSTFVRNLEQKGFVSHEAVGGSFRYYAV

>  <measure.name>
soluble fraction (log2)

>  <numeric.readout>
-1.45

$$$$
>  <sequence.entry>
HMQLASILDDIPGIGKKRKENLLTHFGSFSKIQSADIDALAEVPGISRDLAETIHTYLKTHQ

>  <measure.name>
soluble fraction (log2)

>  <numeric.readout>
-0.0246

$$$$
>  <sequence.entry>
HMEVLEGFIEDIKFKSEESGYTVAKLNNRNKSIVIVGTMPFISEGQHVKLTGEWKIHQKFGAQFNVKELEE

>  <measure.name>
soluble fraction (log2)

>  <numeric.readout>
-0.923

$$$$
>  <sequence.entry>
HMHAEEIAREAKEALERGEEFHFAGITVRSEEALEFLEEWLRKFF

>  <measure.name>
soluble fraction (log2)

>  <numeric.readout>
-1.02

$$$$
>  <sequence.entry>
HMSEVTYQETLRLLRRAIDVLPQQSRQIILLGLSGKNNNEVAEMLGISVNTVKTLKKGAYKSLRNSL

>  <measure.name>
soluble fraction (log2)

>  <numeric.readout>
-1.87

$$$$
>  <sequence.entry>
HMAAEELTVDKILTAQSFGVTAEAILAKVNDPANTVATLTQADVDRLRAAGVPEGVVTALQARAPQ

>  <measure.name>
soluble fraction (log2)

>  <numeric.readout>
0.118

$$$$
>  <sequence.entry>
HMDFTHFTLKQDGKFAGSSNLLHQAVIAAARLAAETGKPVTVMAHVRGGGTRKAVFNPDGTNDKIWN

>  <measure.name>
soluble fraction (log2)

>  <numeric.readout>
-1.05

$$$$
>  <sequence.entry>
HMADIWDLLRSEYKLTETDVRMLTDMLPDELMNDFRSEVLALRDRMNRYKVNNPKSYVVTSLKNFIIQHTP

>  <measure.name>
soluble fraction (log2)

>  <numeric.readout>
-1.09

$$$$

The values you see were collected from the domain aggregation screens of Martell et al. (2025).
